Answer each item with its documented IC50.
Molecular target: NK1 (Homo sapiens)
Sequence (P25103 whole entry): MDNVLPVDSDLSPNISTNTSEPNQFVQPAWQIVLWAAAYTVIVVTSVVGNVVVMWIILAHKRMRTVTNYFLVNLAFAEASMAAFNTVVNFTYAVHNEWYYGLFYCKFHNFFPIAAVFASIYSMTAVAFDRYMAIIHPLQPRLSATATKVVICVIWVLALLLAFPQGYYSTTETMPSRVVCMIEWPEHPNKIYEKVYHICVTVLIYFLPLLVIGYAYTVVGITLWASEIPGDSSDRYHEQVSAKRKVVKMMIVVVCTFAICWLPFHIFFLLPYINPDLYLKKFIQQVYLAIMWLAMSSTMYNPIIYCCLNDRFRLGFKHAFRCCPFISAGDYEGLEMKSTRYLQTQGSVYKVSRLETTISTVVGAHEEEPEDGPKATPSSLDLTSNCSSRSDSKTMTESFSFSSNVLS
Test: Signal transduction (ST), intracellular Ca++ (FLIPR), NK1 antagonistic activity
Type: cell-based
Details: read-out: pIC50 NK1 (converted)
Protocol: This test evaluates in vitro functional NK1 antagonistic activity. For the measurements of intracellular Ca^++ concentrations the cells were grown on 96-well (black wall/transparent bottom) plates from Costar for 2 days until they reached confluence. […] The cells were preincubated with a concentration range of antagonists for 20 min at RT and Ca^++-signals after addition of the agonists were measured in a Fluorescence Image Plate Reader (FLIPR from Molecular Devices, Crawley, England). […]
Field format: number, assumed nM, no unit text.

Which IC50 value is on record for O=C(CN1CCOC1=O)N1CCC(N2CCN([C@H]3CCN(C(=O)c4cc(C(F)(F)F)cc(C(F)(F)F)c4)[C@H](Cc4ccccc4)C3)CC2)C1 (stereo partly drawn) ? 31.6

Which IC50 value is on record for O=C(c1cccs1)N1CCC(N2CCN(C3CCN(C(=O)c4cc(C(F)(F)F)cc(C(F)(F)F)c4)C(Cc4ccc(F)c(F)c4)C3)CC2)C1 (single isomer, unassigned) [Compound 232] ? 6.31

Which IC50 value is on record for O=C(c1ccoc1)N1CCC(N2CCN(C3CCN(C(=O)c4cc(C(F)(F)F)cc(C(F)(F)F)c4)C(Cc4ccccc4)C3)CC2)C1 (single isomer, unassigned) [Compound 138] ? 126

====

Biological target: NK1 (Homo sapiens)
Experiment: Signal transduction (ST), intracellular Ca++ (FLIPR), NK1 antagonistic activity
Assay type: cell-based
Details: read-out: pIC50 NK1 (converted)
readoutLabel: IC50 (nM)
Field format: number, assumed nM, no unit text.

Which IC50 value is on record for CC(C(=O)N1CCC(N2CCN([C@H]3CCN(C(=O)c4cc(C(F)(F)F)cc(C(F)(F)F)c4)[C@H](Cc4ccccc4)C3)CC2)C1)c1ccccc1 (stereo partly drawn) ? 12.6

Which IC50 value is on record for O=C(c1cc(C(F)(F)F)cc(C(F)(F)F)c1)N1CC[C@H](N2CCN([C@@H]3CCNC3)CC2)C[C@H]1Cc1ccc(Cl)c(Cl)c1 ? 6.31

Which IC50 value is on record for O=C(c1cc(C(F)(F)F)cc(C(F)(F)F)c1)N1CCC(N2CCN(C3CCNC3)CC2)CC1Cc1ccc(Cl)c(Cl)c1 (stereo not drawn) ? 79.4

Which IC50 value is on record for O=C1CC[C@@H](C(=O)N2CCC(N3CCN([C@H]4CCN(C(=O)c5cc(C(F)(F)F)cc(C(F)(F)F)c5)[C@H](Cc5ccccc5)C4)CC3)C2)O1 (stereo partly drawn) ? 20

Which IC50 value is on record for O=C(C1CCOC1)N1CCC(N2CCN(C3CCN(C(=O)c4cc(C(F)(F)F)cc(C(F)(F)F)c4)C(Cc4ccc(F)c(F)c4)C3)CC2)C1 (single isomer, unassigned) [Compound 285] ? 6.31

Which IC50 value is on record for O=C(C(=O)N1CCC(N2CCN(C3CCN(C(=O)c4cc(C(F)(F)F)cc(C(F)(F)F)c4)C(Cc4ccccc4)C3)CC2)C1)c1ccco1 (stereo not drawn) [Compound 64] ? 50.1

====

Answer each item with its documented IC50.
Target: NK3 (Homo sapiens, UniProt P29371)
Sequence (P29371 1-465): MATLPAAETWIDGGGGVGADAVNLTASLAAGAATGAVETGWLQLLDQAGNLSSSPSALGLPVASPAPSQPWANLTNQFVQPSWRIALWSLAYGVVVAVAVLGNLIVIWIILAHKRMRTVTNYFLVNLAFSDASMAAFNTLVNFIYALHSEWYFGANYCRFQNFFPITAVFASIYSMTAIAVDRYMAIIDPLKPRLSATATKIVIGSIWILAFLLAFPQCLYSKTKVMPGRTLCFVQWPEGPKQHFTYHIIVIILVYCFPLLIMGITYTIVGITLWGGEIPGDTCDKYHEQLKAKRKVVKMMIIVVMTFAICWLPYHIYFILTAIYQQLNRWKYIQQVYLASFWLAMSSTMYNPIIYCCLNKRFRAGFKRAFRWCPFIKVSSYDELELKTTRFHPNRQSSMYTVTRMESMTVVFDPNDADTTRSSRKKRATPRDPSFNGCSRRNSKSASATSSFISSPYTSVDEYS
Experiment: Signal transduction (ST), intracellular Ca++ (FLIPR), NK3
Format: cell-based
Conditions: read-out: pIC50 NK3 (converted)
Field format: number, assumed nM, no unit text.

Which IC50 value is on record for O=C(c1ccsc1)N1CCC(N2CCN(C3CCN(C(=O)c4cc(C(F)(F)F)cc(C(F)(F)F)c4)C(Cc4cc(F)cc(F)c4)C3)CC2)C1 (stereo not drawn) [Compound 337] ? 1260

Which IC50 value is on record for O=C(c1ccsc1)N1CCC(N2CCN(C3CCN(C(=O)c4cc(C(F)(F)F)cc(C(F)(F)F)c4)C(Cc4ccc(F)cc4)C3)CC2)C1 (stereo not drawn) [Compound 278] ? 2000

Which IC50 value is on record for O=C(c1ccsc1)N1CCC(N2CCN(C3CCN(C(=O)c4cc(C(F)(F)F)cc(C(F)(F)F)c4)C(Cc4ccc(F)c(F)c4)C3)CC2)C1 (single isomer, unassigned) [Compound 257] ? 631
